Data provenance is patent US20070299062A1.

Molecular target: UniProt:Q99705
Assay: MCH-1R competition binding assay
property: Ki (nM)

Below are worked cases with known answers.
>>> experimental_value("CC(=O)N1CCN(Cc2ccc3c(c2)CC[C@H](n2cnc4cc(-c5ccnc(Cl)c5)sc4c2=O)C3)CC1")
496
>>> experimental_value("CS(=O)(=O)CCNCc1ccc2c(c1)CC[C@H](n1cnc3cc(-c4ccc(Cl)cc4)sc3c1=O)C2")
22.6
>>> experimental_value("COc1ccc(-c2cc3ncn([C@H]4CCc5cc(CN6CCN(C(C)=O)CC6)ccc5C4)c(=O)c3s2)cc1")
65.2
>>> experimental_value("CC(=O)N1CCN(Cc2ccc3c(c2)CC[C@H](n2cnc4cc(-c5cccc(Cl)c5)sc4c2=O)C3)CC1")
70.5
>>> experimental_value("CN(CCS(C)(=O)=O)Cc1ccc2c(c1)CC[C@H](n1cnc3cc(-c4ccc(Cl)cc4)sc3c1=O)C2")
15.8

A: CC(=O)N1CCN(Cc2ccc3c(c2)CC[C@H](n2cnc4cc(-c5cccs5)sc4c2=O)C3)CC1
B: CN1CCN(C2CCN(Cc3ccc4c(c3)CC[C@H](n3cnc5cc(-c6ccc(Cl)cc6)sc5c3=O)C4)CC2)CC1
# returns the entry with the larger Ki; inputs A and B API: response body contains the label of the selected item. A
(A: 270 nM, B: 42 nM)

* * *

Target: 5-HT2c receptor (Homo sapiens, UniProt P28335)
Construct: purchased Perkin-Elmer or Euroscreen (named only as possible suppliers)
Sequence (P28335 33-458): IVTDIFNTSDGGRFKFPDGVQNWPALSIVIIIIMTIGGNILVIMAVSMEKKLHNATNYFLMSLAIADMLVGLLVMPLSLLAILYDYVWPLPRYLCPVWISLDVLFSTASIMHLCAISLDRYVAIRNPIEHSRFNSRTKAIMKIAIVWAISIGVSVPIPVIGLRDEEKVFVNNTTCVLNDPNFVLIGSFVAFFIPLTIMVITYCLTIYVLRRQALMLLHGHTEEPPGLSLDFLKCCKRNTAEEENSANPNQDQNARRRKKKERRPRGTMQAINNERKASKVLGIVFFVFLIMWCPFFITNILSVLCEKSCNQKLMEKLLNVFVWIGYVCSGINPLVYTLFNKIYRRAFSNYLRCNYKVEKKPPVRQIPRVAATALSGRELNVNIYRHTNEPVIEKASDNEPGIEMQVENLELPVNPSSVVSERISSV
Assay: 5-HT2c receptor binding assay (3H-mesulergine competition)
pKi: −log10 of the molar value.
property: pKi

Solved cases (3 shown):
>>> experimental_value("CS(=O)(=O)N1CCN(Cc2ccc3c(c2)CC[C@H](n2cnc4cc(-c5cncc(Cl)c5)sc4c2=O)C3)CC1")
"< 4.00"
>>> experimental_value("CS(=O)(=O)N1CCN(Cc2ccc3c(c2)CC[C@H](n2cnc4cc(-c5cncc(F)c5)sc4c2=O)C3)CC1")
"< 4.00"
>>> experimental_value("COc1cncc(-c2cc3ncn([C@H]4CCc5cc(CN6CCN(S(C)(=O)=O)CC6)ccc5C4)c(=O)c3s2)c1")
"< 4.00"

Next item in the queue.
Specify the recorded pKi for CCN(CC)Cc1ccc2c(c1)CC[C@H](n1cnc3cc(-c4ccc(Cl)cc4)sc3c1=O)C2 , system: 5-HT2c receptor (Homo sapiens, UniProt P28335). 5.17

* * *

Listed next: entries and their corresponding Ki.
Biological target: 5-HT2c receptor (Homo sapiens, UniProt P28335)
Construct: purchased Perkin-Elmer or Euroscreen (named only as possible suppliers)
Sequence (P28335 33-458): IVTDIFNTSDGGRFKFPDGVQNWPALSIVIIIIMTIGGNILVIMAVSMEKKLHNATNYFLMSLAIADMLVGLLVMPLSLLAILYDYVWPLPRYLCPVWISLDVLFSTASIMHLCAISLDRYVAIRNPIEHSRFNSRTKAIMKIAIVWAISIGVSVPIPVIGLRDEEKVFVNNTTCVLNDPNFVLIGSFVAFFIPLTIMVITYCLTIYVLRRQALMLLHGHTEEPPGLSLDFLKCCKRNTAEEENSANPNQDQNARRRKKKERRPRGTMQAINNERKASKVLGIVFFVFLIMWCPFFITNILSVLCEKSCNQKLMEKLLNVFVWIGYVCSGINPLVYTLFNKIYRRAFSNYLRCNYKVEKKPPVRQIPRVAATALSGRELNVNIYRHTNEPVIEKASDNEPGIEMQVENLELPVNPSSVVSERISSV
Assay: 5-HT2c receptor binding assay (3H-mesulergine competition)
Conditions: 1 nM 3H-mesulergine; read-out: Ki (nM) binding data 5-HT2C
Method: MCH antagonist compounds are evaluated for binding to the serotonin 5-HT2c receptor to determine receptor selectivity. Binding activity is assessed using a competitive assay with ^3H-mesulergine (Perkin Elmer), a 5-HT2c selective ligand, on membrane containing the 5-HT2c receptor. […] 5-HT2c receptor containing membranes are readily available from several companies including Perkin-Elmer and Euroscreen.

Here are 3 compounds together with their reported answers.
>>> experimental_value("CS(=O)(=O)N1CCN(Cc2ccc3c(c2)CC[C@H](n2cnc4cc(-c5cccs5)sc4c2=O)C3)CC1")
"> 100000 nM"
>>> experimental_value("O=c1c2sc(-c3ccc(Cl)cc3)cc2ncn1[C@H]1CCc2cc(CN3CCCC3)ccc2C1")
"3730 nM"
>>> experimental_value("CS(=O)(=O)N1CCN(Cc2ccc3c(c2)CC[C@H](n2cnc4cc(-c5ccoc5)sc4c2=O)C3)CC1")
"> 100000 nM"

Check the records and state Ki for O=c1c2sc(-c3ccc(Cl)cc3)cc2ncn1[C@H]1CCc2cc(CN3CC[C@H](O)C3)ccc2C1 9550 nM

* * *

Molecular target: MCH-1R (UniProt Q99705)
Assay: MCH-1R competition binding assay
property: Ki (nM)

1: CC(=O)N1CCN(Cc2ccc3c(c2)CC[C@H](n2cnc4cc(-c5ccc(C#N)cc5)sc4c2=O)C3)CC1 [(S)-3-[6-(4-Acetylpiperazin-1-ymethyl)-1,2,3,4-tetrahydronap]
2: CC(=O)N1CCN(Cc2ccc3c(c2)CC[C@H](n2cnc4cc(-c5cccnc5)sc4c2=O)C3)CC1
Could you tell me which of these two has the smaller Ki figure? First: 1 Second: 2 State your choice using its label. 1

P: CC(=O)N1CCN(Cc2ccc3c(c2)CC[C@H](n2cnc4cc(-c5ccc(C)cc5)sc4c2=O)C3)CC1
Q: CC(=O)N1CCN(Cc2ccc3c(c2)CC[C@H](n2cnc4cc(-c5ccc(F)cc5F)sc4c2=O)C3)CC1
Looking at P and Q , which one comes out lower in Ki terms? Mark your selection by writing its label. Q
(Q: 8.4 nM, P: 16.1 nM)

* * *

Each record here notes measured Ki.
Biological target: 5-HT2c receptor (Homo sapiens, UniProt P28335)
Construct: purchased Perkin-Elmer or Euroscreen (named only as possible suppliers)
Assay: 5-HT2c receptor binding assay (3H-mesulergine competition)
Conditions: 1 nM 3H-mesulergine; read-out: Ki (nM) binding data 5-HT2C
Description: MCH antagonist compounds are evaluated for binding to the serotonin 5-HT2c receptor to determine receptor selectivity. Binding activity is assessed using a competitive assay with ^3H-mesulergine (Perkin Elmer), a 5-HT2c selective ligand, on membrane containing the 5-HT2c receptor. […] 5-HT2c receptor containing membranes are readily available from several companies including Perkin-Elmer and Euroscreen.

Examples from the recorded data:
>>> experimental_value("CNCc1ccc2c(c1)CC[C@H](n1cnc3cc(-c4ccc(Cl)cc4)sc3c1=O)C2")
"2140 nM"
>>> experimental_value("CS(=O)(=O)N1CCN(Cc2ccc3c(c2)CC[C@H](n2cnc4cc(-c5cccc(C#N)c5)sc4c2=O)C3)CC1")
"> 100000 nM"
>>> experimental_value("CN(CCS(C)(=O)=O)Cc1ccc2c(c1)CC[C@H](n1cnc3cc(-c4ccc(Cl)cc4)sc3c1=O)C2")
"> 100000 nM"

Now look at this entry.
Please indicate Ki recorded for CS(=O)(=O)N1CCN(Cc2ccc3c(c2)CC[C@H](n2cnc4cc(-c5ccc(F)c(F)c5)sc4c2=O)C3)CC1 > 100000 nM

* * *

Target: 5-HT2c receptor (Homo sapiens, UniProt P28335)
Construct: purchased Perkin-Elmer or Euroscreen (named only as possible suppliers)
Sequence (P28335 33-458): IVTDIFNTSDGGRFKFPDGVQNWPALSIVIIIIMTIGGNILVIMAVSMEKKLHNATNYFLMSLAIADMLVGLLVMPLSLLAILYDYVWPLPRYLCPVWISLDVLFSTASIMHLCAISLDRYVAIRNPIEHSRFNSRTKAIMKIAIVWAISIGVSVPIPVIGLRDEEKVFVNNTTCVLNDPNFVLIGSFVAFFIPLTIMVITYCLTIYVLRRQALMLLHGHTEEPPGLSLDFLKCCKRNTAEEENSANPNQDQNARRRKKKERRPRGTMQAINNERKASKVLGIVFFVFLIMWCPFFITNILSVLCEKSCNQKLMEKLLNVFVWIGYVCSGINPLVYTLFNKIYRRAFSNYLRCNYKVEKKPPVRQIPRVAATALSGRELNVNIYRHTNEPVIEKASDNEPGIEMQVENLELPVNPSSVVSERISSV
Assay: 5-HT2c receptor binding assay (3H-mesulergine competition)
Settings: 1 nM 3H-mesulergine; read-out: Ki (nM) binding data 5-HT2C
property: Ki

Guide cases for Ki, answers given:
>>> experimental_value("CS(=O)(=O)N1CCN(Cc2ccc3c(c2)CC[C@H](n2cnc4cc(-c5cc(F)cc(F)c5)sc4c2=O)C3)CC1")
"> 100000 nM"
>>> experimental_value("CC(=O)N1CCN(Cc2ccc3c(c2)CC[C@H](n2cnc4cc(-c5ccc(F)cc5F)sc4c2=O)C3)CC1")
"> 100000 nM"
>>> experimental_value("CC(=O)N1CCN(Cc2ccc3c(c2)CC[C@H](n2cnc4cc(-c5ccc(Cl)c(Cl)c5)sc4c2=O)C3)CC1")
"> 100000 nM"

Please examine the following record next.
With 5-HT2c receptor (Homo sapiens, UniProt P28335) as the test system, provide measured Ki for this compound: CN1CCN(C2CCN(Cc3ccc4c(c3)CC[C@H](n3cnc5cc(-c6ccc(Cl)cc6)sc5c3=O)C4)CC2)CC1 4790 nM
